# Test system: ATF4
# methodSummary: ATF4 protein level in PC3 cells by western blot, 24 hr
# Assay type: cell-based
# testContext: Homo sapiens, PC-3, PC3, 24 h, Actin control, read-out: Relative ATF4 protein at 10 μM (fold change, PC3 24 h)
Label t when fold induction at 10 µM >= 6; otherwise f.

Cn1nc(C(F)(F)F)cc1-c1ccc(OCc2ccc(Cl)cc2)c(-c2ccc(Cl)c(Cl)c2)c1O; t
Cn1nc(C#N)cc1-c1ccc(OCc2ccc(Cl)cc2)c(-c2ccc(Cl)c(C(F)(F)F)c2)c1O; t
Cn1nc(C(F)(F)F)cc1-c1ccc(OCc2ccc(Cl)cc2)c(-c2ccc(Cl)c(C#N)c2)c1O; t
Cn1nc(C(F)(F)F)c(Cl)c1-c1ccc(COc2ccc(Cl)cc2Cl)c(-c2ccc(Cl)c(C(F)(F)F)c2)c1O; t
Cn1nc(C(F)(F)F)cc1-c1ccc(OCc2ccc(OCCOCCNC(=O)COc3cccc4c3C(=O)N(C3CCC(=O)NC3=O)C4=O)cc2)c(-c2ccc(Cl)c(C(F)(F)F)c2)c1O (stereo not shown); f
Cn1nc(C(F)(F)F)cc1-c1ccc(OCc2ccc(Cl)cc2)c(-c2cccc(F)c2)c1O; f
COc1ccc(C2=N[C@@H](c3ccc(Cl)cc3)[C@@H](c3ccc(Cl)cc3)N2C(=O)N2CCN(CCCCCOc3ccc(-c4cc(C(F)(F)F)nn4C)c(O)c3-c3ccc(Cl)c(C(F)(F)F)c3)C(=O)C2)c(OC(C)C)c1; f

###

# fold induction at 10 µM listing for each entry below
# Test system: ATF4
# methodSummary: ATF4 protein level in PC3 cells by western blot, 24 hr
# Format: cell-based
# testContext: Homo sapiens, PC-3, PC3, 24 h, Actin control, read-out: Relative ATF4 protein at 10 μM (fold change, PC3 24 h)
# Procedure: Table 2. Biological data of selected compounds. For IC50 determination. PC3 and PC12 cells were treated with increasing concentrations of the indicated compounds for 72 hrs and cell viability assessed using CellTitreGlo Assay (Promega). For MYC and ATF4 protein level determination. […] Quantification analyses were performed by Biorad ChemiDoc Imager and Bio-Rad Image Lab software.
experimentalReadout: fold induction at 10 µM

Cn1nc(C(F)(F)F)cc1-c1ccc(N(CCCOCCC(=O)NCCOCCOCCNc2ccc3c(c2)C(=O)N(C2CCC(=O)NC2=O)C3=O)C(=O)c2ccc(Cl)c(C(F)(F)F)c2)cc1O (stereo not drawn) [NUCC-0226293]; 3.6
Cn1nc(C(F)(F)F)cc1-c1ccc(OCc2ccc(OCCOCCNc3cccc4c3C(=O)N(C3CCC(=O)NC3=O)C4=O)cc2)c(-c2ccc(Cl)c(C(F)(F)F)c2)c1O (stereo not drawn) [NUCC-0226301]; 3.2
Cn1nc(C(F)(F)F)cc1-c1ccc(OCc2ccc(Cl)cc2)c(-c2ccc(Cl)cc2F)c1O [NUCC-0226497]; 5.9
CNc1ccc(-c2cc(C(F)(F)F)nn2C)c(O)c1-c1ccc(Cl)c(C(F)(F)F)c1 [NUCC-0226527]; 1.2
Cn1nc(C(F)(F)F)cc1-c1ccc(N(CCCOCCC(=O)NCCOCCOCCNc2cccc3c2C(=O)N(C2CCC(=O)NC2=O)C3=O)C(=O)c2ccc(Cl)c(C(F)(F)F)c2)cc1O (stereo not drawn) [NUCC-0226231]; 14.3
Cn1nc(C(F)(F)F)c(Cl)c1-c1cc(F)c(COc2ccc(Cl)cc2)c(-c2ccc(Cl)c(C(F)(F)F)c2)c1O [NUCC-0227063]; 12.4
